Record form. Attribute: PBM binding z-score. Fill in for each entry.
- Tested on: PXR:RXRa (NR concentration 270 nM, RXRa partner concentration 90 nM)
- EXPERIMENT NOTES: PBM binding z-score (relative to random genomic background probes); higher = stronger binding; sequences stand for … in GC…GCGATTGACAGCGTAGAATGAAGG
The answer should be written as a number, with no unit following it.

Please report the recorded PBM binding z-score for `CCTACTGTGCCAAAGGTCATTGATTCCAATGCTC` . 5.42

Please report the recorded PBM binding z-score for `CAAACTAGGTCACCGGAAGGACAAAGTCCGCATG` . 2.89

Please report the recorded PBM binding z-score for `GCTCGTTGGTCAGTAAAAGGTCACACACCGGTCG` . 5.35

Please report the recorded PBM binding z-score for `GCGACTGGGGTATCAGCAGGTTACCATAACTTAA` . -0.149

Please report the recorded PBM binding z-score for `CGTCCAAGGTCAGGGAGGTCAGTGAATGCCGAGT` . 6.02

Please report the recorded PBM binding z-score for `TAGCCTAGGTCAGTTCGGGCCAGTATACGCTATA` . 1.53

Please report the recorded PBM binding z-score for `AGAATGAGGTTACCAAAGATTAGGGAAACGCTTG` . 1.15

Please report the recorded PBM binding z-score for `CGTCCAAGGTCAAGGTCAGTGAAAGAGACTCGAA` . 4.81

Please report the recorded PBM binding z-score for `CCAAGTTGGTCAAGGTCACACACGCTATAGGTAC` . 4.6

Please report the recorded PBM binding z-score for `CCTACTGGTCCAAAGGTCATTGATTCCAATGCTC` . 5.35

Please report the recorded PBM binding z-score for `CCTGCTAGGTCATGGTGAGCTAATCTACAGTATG` . 1.14

Please report the recorded PBM binding z-score for `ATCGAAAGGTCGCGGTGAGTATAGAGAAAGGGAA` . 3.21

Please report the recorded PBM binding z-score for `CGAACTAGGTCATCCAGGGCAGTGAATACATTGA` . 2.66

Please report the recorded PBM binding z-score for `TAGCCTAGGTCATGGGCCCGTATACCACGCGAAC` . 1.92

Please report the recorded PBM binding z-score for `AGAATGAGGTTATACGTAGATCACGGAAGAAAGT` . 1.19

Please report the recorded PBM binding z-score for `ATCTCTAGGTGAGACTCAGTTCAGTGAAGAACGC` . 1.31

Please report the recorded PBM binding z-score for `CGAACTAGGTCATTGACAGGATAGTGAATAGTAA` . 1.25

Please report the recorded PBM binding z-score for `CGACCTAGGTCATCCAGGACAGTGAATACATTGA` . 2.45

Please report the recorded PBM binding z-score for `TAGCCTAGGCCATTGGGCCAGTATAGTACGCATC` . -0.947

Please report the recorded PBM binding z-score for `CCTACTGGGACAAAAAGGTCATTGATGCCGATAA` . 4.85

Please report the recorded PBM binding z-score for `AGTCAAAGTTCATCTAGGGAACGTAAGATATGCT` . 4.88

Please report the recorded PBM binding z-score for `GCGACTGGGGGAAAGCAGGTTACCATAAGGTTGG` . 0.944

Please report the recorded PBM binding z-score for `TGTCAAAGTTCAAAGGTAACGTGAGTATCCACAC` . 5.78

Please report the recorded PBM binding z-score for `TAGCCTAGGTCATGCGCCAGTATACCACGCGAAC` . 1.61

Please report the recorded PBM binding z-score for `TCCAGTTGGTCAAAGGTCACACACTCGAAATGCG` . 6.28

Please report the recorded PBM binding z-score for `AGTCACAGTTCATCTAGGTAACGTAAGATATGCT` . 2.32

Please report the recorded PBM binding z-score for `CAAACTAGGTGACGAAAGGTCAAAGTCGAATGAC` . 5.93

Please report the recorded PBM binding z-score for `ATCTCTAGGTAAGTCTCAGTTCAGTGAAGAACGC` . 1.23

Please report the recorded PBM binding z-score for `CCTCACGGGTCAAGGTTATAGCACGGGTGGTACG` . 3.03

Please report the recorded PBM binding z-score for `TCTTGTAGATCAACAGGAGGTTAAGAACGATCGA` . 0.722

Please report the recorded PBM binding z-score for `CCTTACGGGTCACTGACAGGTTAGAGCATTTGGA` . 3.32

Please report the recorded PBM binding z-score for `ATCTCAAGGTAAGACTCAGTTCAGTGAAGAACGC` . 1.47

Please report the recorded PBM binding z-score for `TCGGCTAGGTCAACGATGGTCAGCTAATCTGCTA` . 1.58

Please report the recorded PBM binding z-score for `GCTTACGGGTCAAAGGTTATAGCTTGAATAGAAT` . 5.86

Please report the recorded PBM binding z-score for `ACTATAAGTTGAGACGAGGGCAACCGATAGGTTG` . 3.22

Please report the recorded PBM binding z-score for `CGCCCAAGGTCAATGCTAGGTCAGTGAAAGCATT` . 4.68

Please report the recorded PBM binding z-score for `TGTCAAAGTTCAACGGTAACGTAAGTATCCACAC` . 4.77

Please report the recorded PBM binding z-score for `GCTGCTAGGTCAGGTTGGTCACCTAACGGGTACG` . 0.48

Please report the recorded PBM binding z-score for `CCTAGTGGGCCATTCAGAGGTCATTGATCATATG` . 4.94

Please report the recorded PBM binding z-score for `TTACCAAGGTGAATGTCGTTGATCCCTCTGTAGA` . 0.524

Please report the recorded PBM binding z-score for `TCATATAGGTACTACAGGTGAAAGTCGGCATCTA` . 0.663

Please report the recorded PBM binding z-score for `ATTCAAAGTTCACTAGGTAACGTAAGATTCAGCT` . 3.71

Please report the recorded PBM binding z-score for `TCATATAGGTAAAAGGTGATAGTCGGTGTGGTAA` . 0.875

Please report the recorded PBM binding z-score for `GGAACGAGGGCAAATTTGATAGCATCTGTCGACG` . 0.608

Please report the recorded PBM binding z-score for `AGAATGAGGTTACCAAAGATCACGGAAACGCTTG` . 2.1

Please report the recorded PBM binding z-score for `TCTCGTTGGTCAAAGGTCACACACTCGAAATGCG` . 5.86

Please report the recorded PBM binding z-score for `CCGACTGGGGTAAGGTTACCATAACGCACAGCCA` . 0.899

Please report the recorded PBM binding z-score for `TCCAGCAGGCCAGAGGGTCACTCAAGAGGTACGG` . 1.45

Please report the recorded PBM binding z-score for `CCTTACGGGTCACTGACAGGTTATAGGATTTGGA` . 3.57

Please report the recorded PBM binding z-score for `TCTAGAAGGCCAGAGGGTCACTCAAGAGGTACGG` . 1.64

Please report the recorded PBM binding z-score for `GCTTACGGGTCAAAGGGTATAGCATGAATAGAAT` . 4.16

###

- Tested on: PPARg:RXRa (NR concentration 180 nM, RXRa partner concentration 90 nM)
- EXPERIMENT NOTES: PBM binding z-score (relative to random genomic background probes); higher = stronger binding; sequences stand for … in GC…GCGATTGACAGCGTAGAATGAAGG
MEASURED ENDPOINT: PBM binding z-score
The answer should be written as a number, with no unit following it.

Please report the recorded PBM binding z-score for `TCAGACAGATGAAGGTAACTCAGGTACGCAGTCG` . 0.832

Please report the recorded PBM binding z-score for `CCTGGTAGGTCAATGGTCAGCTAAAGCAGCTCGC` . 6.52

Please report the recorded PBM binding z-score for `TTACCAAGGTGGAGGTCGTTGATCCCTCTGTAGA` . 0.691

Please report the recorded PBM binding z-score for `CCGACTGGGGCATAATGTTACCATAAGCCAGCCC` . 1.15

Please report the recorded PBM binding z-score for `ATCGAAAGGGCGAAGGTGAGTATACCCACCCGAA` . 1.93

Please report the recorded PBM binding z-score for `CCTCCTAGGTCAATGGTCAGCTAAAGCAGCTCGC` . 3.92

Please report the recorded PBM binding z-score for `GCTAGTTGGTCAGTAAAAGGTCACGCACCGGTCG` . 3.18

Please report the recorded PBM binding z-score for `CCTGCTAGGTCTTGGTCAGCTAATCTACAGTATG` . -0.371

Please report the recorded PBM binding z-score for `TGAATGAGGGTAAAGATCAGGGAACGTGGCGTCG` . 4.39

Please report the recorded PBM binding z-score for `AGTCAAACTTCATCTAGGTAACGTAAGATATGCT` . 0.882

Please report the recorded PBM binding z-score for `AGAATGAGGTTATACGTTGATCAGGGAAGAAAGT` . 2.03

Please report the recorded PBM binding z-score for `CCACGGAGGACAGAAGGTCAGAGCTGTCCGCTTT` . 0.277

Please report the recorded PBM binding z-score for `GCTTGTAGATCAAGGTTAAGCAAGACTAAGCTAA` . 1.05

Please report the recorded PBM binding z-score for `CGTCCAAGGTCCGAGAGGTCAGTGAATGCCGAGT` . -0.135

Please report the recorded PBM binding z-score for `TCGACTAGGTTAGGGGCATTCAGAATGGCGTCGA` . 1.35

Please report the recorded PBM binding z-score for `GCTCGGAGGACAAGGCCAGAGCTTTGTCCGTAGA` . -1.44

Please report the recorded PBM binding z-score for `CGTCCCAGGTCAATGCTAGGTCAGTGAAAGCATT` . 2.35

Please report the recorded PBM binding z-score for `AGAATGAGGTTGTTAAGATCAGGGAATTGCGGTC` . 0.171

Please report the recorded PBM binding z-score for `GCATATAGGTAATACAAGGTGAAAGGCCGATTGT` . 2.16

Please report the recorded PBM binding z-score for `TCTCGGAGGACACGAAGGTCGGAGCTTTCCAGAG` . -0.0942

Please report the recorded PBM binding z-score for `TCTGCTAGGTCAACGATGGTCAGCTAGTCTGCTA` . 2.46

Please report the recorded PBM binding z-score for `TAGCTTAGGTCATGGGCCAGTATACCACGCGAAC` . 2.88

Please report the recorded PBM binding z-score for `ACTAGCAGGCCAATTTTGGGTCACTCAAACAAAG` . 0.396

Please report the recorded PBM binding z-score for `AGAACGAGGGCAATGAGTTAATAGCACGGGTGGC` . 1.56

Please report the recorded PBM binding z-score for `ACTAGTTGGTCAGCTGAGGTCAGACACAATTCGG` . 0.879

Please report the recorded PBM binding z-score for `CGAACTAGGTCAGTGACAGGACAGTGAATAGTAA` . 5.73
